# Lookup of reported viability at 4 days, 1 uM keyed by entry
test: Neurotoxicity assay: MTS viability of primary cortical neuronal cultures
Format: cell-based, mouse
reported-conditions: BL6Jx129sv, mouse, primary cortical neuronal cultures, Neuronal cells, test compound 1 uM; read-out: Cytotoxicity (% viable at 1 and 10 uM)
The figure you give is taken to be in %; do not add the unit.

Some solved entries appear below for comparison.
test-smiles	readout-type	numeric-value
O=c1c2c(Cl)cc(Cl)c(O)c2ncn1-c1ccc(Cl)cn1	viability at 4 days, 1 uM	94
Oc1ccccc1-c1cc(Cl)c2cccnc2c1O	viability at 4 days, 1 uM	100
O=C(NCc1ccccn1)c1ccc2cccc(O)c2n1	viability at 4 days, 1 uM	96
Oc1c(-c2ccsc2)cc(Cl)c2cccnc12	viability at 4 days, 1 uM	93
Oc1c(-c2ccccc2)cc(Cl)c2cccnc12	viability at 4 days, 1 uM	93
Br.O=c1c2c(Cl)cc(Cl)c(O)c2ncn1Cc1cccc(Cn2cnc3c(Cl)c(Cl)cc(Cl)c3c2=O)n1	viability at 4 days, 1 uM	89
CN(C)c1ccc(-c2cc(Cl)c3cccnc3c2O)cc1	viability at 4 days, 1 uM	94
O=C(NCc1ccccn1)c1cc(O)c2cccc(O)c2n1	viability at 4 days, 1 uM	100

The reported value for "O=c1c2c(Cl)cc(Cl)c(O)c2ncn1C1CC1" in terms of viability at 4 days, 1 uM is 91

###

test: Neurotoxicity assay: MTS viability of primary cortical neuronal cultures
Assay type: cell-based, mouse
reported-conditions: BL6Jx129sv, mouse, primary cortical neuronal cultures, Neuronal cells, test compound 10 uM; read-out: Cytotoxicity (% viable at 1 and 10 uM)
Method: Media was then replaced with Neurobasal media (Invitrogen Life Technologies) and B27 supplements (Invitrogen Life Technologies). Cultures were maintained at 37° C. in 5% CO2. […] Cell viability is determined using the MTS assay. […] 200 microlitre aliquots are measured with a spectrophotometer at 560 nm. […] On completion of the assay, 1/10 volume MTS was added per well of plate (i.e. 25 μl/250 μl). The plates were incubated at 37 C for 2 hrs, and then absorbance was read at 560 nm.
The reader will find reported viability at 4 days, 10 uM values listed item by item below.
Give your result in % as a bare value.

compound	numeric-value
O=c1c2c(Cl)cc(Cl)c(O)c2ncn1C1CC1	77
O=C(c1ccc2cccc(O)c2n1)N(Cc1ccccn1)Cc1ccccn1	79
Oc1c(Br)cc(-c2cc(F)cc(F)c2)c2cccnc12	95
Br.CCC(C)n1cnc2c(O)c(Cl)cc(Cl)c2c1=O (stereo not shown) [drawing 185]	71
Cc1cnc(-n2cnc3c(O)c(Cl)cc(Cl)c3c2=O)s1	70
Oc1ccc(/C=C/c2ccc3cccc(O)c3n2)cc1	75

viability at 4 days, 10 uM reported for this compound "Br.CCN(CC)CCn1cnc2c(O)c(Cl)cc(Cl)c2c1=O" : 77

Form: compound = "NCCNC(=O)c1ccc2cccc(O)c2n1" ; viability at 4 days, 10 uM = 96

// recorded viability at 4 days, 10 uM for "Oc1c(I)cc(Cl)c2cccnc12" : 77

###

The molecules listed here are annotated with their viability at 4 days, 10 uM.
test: Neurotoxicity assay: MTS viability of primary cortical neuronal cultures
Assay type: cell-based, mouse
reported-conditions: BL6Jx129sv, mouse, primary cortical neuronal cultures, Neuronal cells, test compound 10 uM; read-out: Cytotoxicity (% viable at 1 and 10 uM)

test-smiles	result
Oc1c(-c2ccccc2)cc(Cl)c2cccnc12	72%
Cc1cnc(NC(=O)c2ccc3cccc(O)c3n2)s1	68%

The recorded viability at 4 days, 10 uM for entry "COc1cccc(-c2cc(Cl)c3cccnc3c2O)c1" equals 71%

###

test: Neurotoxicity assay: MTS viability of primary cortical neuronal cultures
Type: cell-based, mouse
reported-conditions: BL6Jx129sv, mouse, primary cortical neuronal cultures, Neuronal cells, test compound 10 uM; read-out: Cytotoxicity (% viable at 1 and 10 uM)
viability at 4 days, 10 uM for assorted molecules
Quick note: give the figure in %, leave out the unit.

Previously resolved entries follow.
test-smiles	numeric-value
Br.Cc1cccnc1Cn1cnc2c(O)c(Cl)cc(Cl)c2c1=O	88
Nn1cnc2c(O)c(Cl)cc(Cl)c2c1=O	101
Oc1cccc2ccc(CNCc3ccccn3)nc12	67

// "Oc1c(-c2cccc(F)c2)cc(Cl)c2cccnc12" : viability at 4 days, 10 uM value = 71

Query "Oc1c(-c2ccccc2F)cc(Cl)c2cccnc12" yields viability at 4 days, 10 uM of 54

###

test: Neurotoxicity assay: MTS viability of primary cortical neuronal cultures
Assay type: cell-based, mouse
reported-conditions: BL6Jx129sv, mouse, primary cortical neuronal cultures, Neuronal cells, test compound 1 uM; read-out: Cytotoxicity (% viable at 1 and 10 uM)
# viability at 4 days, 1 uM per record follows
Please reply with the bare figure in % and do not write the unit itself.

Recorded results for 4 compounds are shown here.
test-smiles	numeric-value
Nc1ccc(O)c2ncccc12	108
O=C(CNC(=O)c1cc(O)c2cccc(O)c2n1)NCCc1c[nH]cn1	98
Oc1cccc2c(=S)n(Cc3ccccn3)cnc12	97
O=c1c2c(Cl)cc(Cl)c(O)c2ncn1N1CCCCC1	98

Entry "COc1ccc(-c2cc(Cl)c3cccnc3c2O)cc1" , viability at 4 days, 1 uM reported as 97

// recorded viability at 4 days, 1 uM for "CCn1nccc1-n1cnc2c(O)c(Cl)cc(Cl)c2c1=O" : 102

The compound identified as "Br.CCN(CC)CCn1cnc2c(O)c(Cl)cc(Cl)c2c1=O" registered its viability at 4 days, 1 uM at 107

###

test: Cytotoxicity: viability of M17 cells
reported-conditions: human, M17 neuroblastoma cells, Cytotoxicity (% viable at 1 and 10 uM), test compound 1 uM
In this section, each of the molecules is paired with its reported viability at 1 uM.
Give your result in % as a bare value.

See these solved cases before continuing.
test-smiles	units	viability at 1 uM
O=C1NC(=O)c2cc(-n3cnc4c(O)cccc4c3=O)ccc21	%	102
O=c1c2c(Cl)ccc(O)c2ncn1CC1CC1	%	86.3
CCCNC(=O)Cn1cnc2c(O)c(I)ccc2c1=O	%	84.3

viability at 1 uM recorded for this molecule, "O=c1c2cccc(O)c2ncn1-c1nc2ccccc2[nH]1" , is 108

Note to self: viability at 1 uM recorded for "O=c1c2cccc(O)c2ncn1Cc1ccncc1" was 105

Field viability at 1 uM (entry "CC(C)Cn1cnc2c(O)c(I)ccc2c1=O" ) reads 111

Measured viability at 1 uM, "Cn1ccnc1Cn1cnc2c(O)c(Cl)cc(Cl)c2c1=O" : 108

The recorded viability at 1 uM for "O=c1c2c(Cl)cc(Cl)c(O)c2ncn1-c1cc[nH]n1" is 126

get_value(item= "Oc1c(I)cc(Cl)c2cccnc12" , readout=viability at 1 uM) returns 107

Documented viability at 1 uM of "Cc1nc(Cn2cnc3c(O)c(Cl)cc(Cl)c3c2=O)cs1" : 97

Looking up "O=c1c2cccc(O)c2ncn1Cc1cccc(Cn2cnc3c(O)cccc3c2=O)n1" , I see its viability at 1 uM listed as 117

The measured viability at 1 uM associated with "Br.CNCc1nc2c(O)c(Cl)cc(Cl)c2c(=O)n1C" reads 96

Record "O=c1c2c(Cl)cc(Cl)c(O)c2ncn1CCNCc1ccncc1" . Reported viability at 1 uM: 103

###

test: In vivo toxicity, visual observations
reported-conditions: 30 mg/kg, number of days
Toxicity at 30 mg/kg by entry:

compound	Toxicity at 30 mg/kg
CCCCc1cnc2c(O)cccn2c1=S	7 days, 2/4 deaths
Cn1ccnc1Cn1cnc2c(O)c(Cl)cc(Cl)c2c1=O	10 days, none
O=c1c2c(Cl)cc(Cl)c(O)c2ncn1-c1ccccn1 [drawing 171]	10 days, none
Cc1ccc(-n2cnc3c(O)c(Cl)cc(Cl)c3c2=O)nc1	10 days, none
CCn1nccc1-n1cnc2c(O)c(Cl)cc(Cl)c2c1=O	10 days, none
CCn1cnc2c(O)c(I)ccc2c1=O	10 days, none

According to the records, this compound "O=c1c2c(Cl)cc(Cl)c(O)c2ncn1CCc1ccccn1" displays Toxicity at 30 mg/kg of 10 days, none

For "O=c1c2c(Cl)cc(Cl)c(O)c2ncn1-c1ccc(F)cc1" the compound record lists Toxicity at 30 mg/kg as 5 days, none

For record "O=c1c2c(Cl)cc(Cl)c(O)c2ncn1CCN1CCOCC1" the listed Toxicity at 30 mg/kg is 10 days, none

Looking up "CN1CCN(n2cnc3c(O)c(Cl)cc(Cl)c3c2=O)CC1" , I found its Toxicity at 30 mg/kg recorded as 10 days, none

The compound identified as "O=c1c(-c2ccc(Cl)cc2)cnc2c(O)c(I)ccn12" registered its Toxicity at 30 mg/kg at 10 days, mild toxic signs

Briefly, Toxicity at 30 mg/kg measured for "CCn1cnc2c(O)c(I)cc(Cl)c2c1=O" : 10 days, 2/4 deaths

Query "CC(C)n1cnc2c(O)c(I)ccc2c1=O" yields Toxicity at 30 mg/kg of 10 days, 1/4 deaths

Reported Toxicity at 30 mg/kg of "O=C1NC(=O)c2cc(-n3cnc4c(O)c(Cl)cc(Cl)c4c3=O)ccc21" : 10 days, none
